Test system: CCRF-CEM (T-Lymphoblastic Leukemia)
Assay explanation: Bliss excess, mean over the matrix (fraction); higher = more synergy;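 also: after 72 h of two-drug dosing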
Would you mind telling me the reported Bliss excess of each entry?
API note: the answer field is a bare number with no unit suffix.

So, CC1(C)CCC(CN2CCN(c3ccc(C(=O)NS(=O)(=O)c4ccc(NCC5CCOCC5)c([N+](=O)[O-])c4)c(Oc4cnc5[nH]ccc5c4)c3)CC2)=C(c2ccc(Cl)cc2)C1 [Venetoclax] + CCN(CCO)CCCOc1ccc2c(Nc3cc(CC(=O)Nc4cccc(F)c4)[nH]n3)ncnc2c1 [AZD2811] (first compound max 1 µM, 7x7, partner max 1 µM) ? Its Bliss excess was -0.0322

So, CN(CCO)CC[C@H](CSc1ccccc1)Nc1ccc(S(=O)(=O)NC(=O)c2ccc(N3CCC([C@@H](O)c4ccccc4-c4ccc(Cl)cc4)CC3)cc2)cc1S(=O)(=O)C(F)(F)F [AZD4320] + CCN(CCO)CCCOc1ccc2c(Nc3cc(CC(=O)Nc4cccc(F)c4)[nH]n3)ncnc2c1 [AZD2811] (first compound max 1 µM, 7x7, partner max 1 µM) ? Its Bliss excess was -0.0228

So, Cc1cc2ncnn2cc1Nc1ncc2c(n1)n(C1CCOCC1)c(=O)n2C [AZD7648] + C=CCn1c(=O)c2cnc(Nc3ccc(N4CCN(C)CC4)cc3)nc2n1-c1cccc(C(C)(C)O)n1 [AZD1775] (first compound max 10 µM, partner max 1 µM) ? Its Bliss excess was 0.0337

So, C=CCn1c(=O)c2cnc(Nc3ccc(N4CCN(C)CC4)cc3)nc2n1-c1cccc(C(C)(C)O)n1 [AZD1775] + Nc1ccn([C@@H]2O[C@H](CO)[C@@H](O)C2(F)F)c(=O)n1 [Gemcitabine] (first compound max 1 µM, partner max 0.3 µM) ? Its Bliss excess was 0.0584

So, Cc1c2c(nn1C)CSCc1cc(n(C)n1)CSc1cc(c3ccccc3c1)OCCCc1c(C(=O)O)n(C)c3c-2c(Cl)ccc13 [AZD5991] + CN(C)CCCOc1ccc(-c2ccc3ncc4c(c3c2)n(C2CCOCC2)c(=O)n4C)cn1 [AZD0156] (first compound max 1 µM, 7x7, partner max 1 µM) ? Its Bliss excess was 0.0467

So, Cc1c2c(nn1C)CSCc1cc(n(C)n1)CSc1cc(c3ccccc3c1)OCCCc1c(C(=O)O)n(C)c3c-2c(Cl)ccc13 [AZD5991] + CS(=O)(=O)CCNCc1ccc(-c2ccc3ncnc(Nc4ccc(OCc5cccc(F)c5)c(Cl)c4)c3c2)o1 [Lapatinib] (first compound max 1 µM, 7x7, partner max 10 µM) ? Its Bliss excess was -0.0676

So, CCN(CCO)CCCOc1ccc2c(Nc3cc(CC(=O)Nc4cccc(F)c4)[nH]n3)ncnc2c1 [AZD2811] + C=CCn1c(=O)c2cnc(Nc3ccc(N4CCN(C)CC4)cc3)nc2n1-c1cccc(C(C)(C)O)n1 [AZD1775] (first compound max 1 µM, partner max 1 µM) ? Its Bliss excess was 0.006

---

System: HuP-T4 (Pancreatic Carcinoma)
Assay explanation: Bliss excess, mean over the matrix (fraction); higher = more synergy
Would you mind telling me the reported Bliss excess of each entry?
API note: the answer field is a bare number with no unit suffix.

So, Cn1cnc2c(F)c(Nc3ccc(Br)cc3Cl)c(C(=O)NOCCO)cc21 [Selumetinib] + C[C@@H]1COCCN1C2=NC(=NC(=C2)C3(CC3)[S@](=N)(=O)C)C4=C5C=CNC5=NC=C4 [AZD6738] (first compound max 10 µM, 7x7, partner max 10 µM) ? Its Bliss excess was 0.0891

So, Cn1cnc2c(F)c(Nc3ccc(Br)cc3Cl)c(C(=O)NOCCO)cc21 [Selumetinib] + C=CCn1c(=O)c2cnc(Nc3ccc(N4CCN(C)CC4)cc3)nc2n1-c1cccc(C(C)(C)O)n1 [AZD1775] (first compound max 10 µM, partner max 1 µM) ? Its Bliss excess was 0.0161

Source: the supplement of paper PMC11061612
